test: basal MM1S mitochondrial membrane potential changes, profiling panel, cell-based, JC-1 fluorescence, 24 h, 100 nL compound (AID 1170); conditions: higher = more signal; note: test concentration not given here
z-score: recorded values
MEASURED QUANTITY: z-score

1. CC(=O)OC[C@H]1O[C@H](CC=NOC[C@@H](O)[C@H]2O[C@@H]3OC(C)(C)O[C@@H]3[C@H]2O)C=C[C@@H]1OC(C)=O = -0.527
2. CCCNC(=O)OC[C@H]1O[C@H](CCON=C2c3cc(OC)ccc3O[C@H](c3cccc(OC)c3)[C@H]2O)C=C[C@@H]1Oc1ccc(OC)cc1 = -0.0229
3. CC(C)=CCCC(C)=CCON=C1C[C@@H](O)[C@@H](O)[C@@H]2[C@@H]3C(=O)N([C@@H](C)c4ccccc4)C(=O)[C@@H]3CC[C@@H]12 = 0.114
4. CON=C(C)CCN1CCc2nc(-c3ccccc3)c(-c3ccccc3)cc2C1 = 0.446
